# Assay text: Oral bioavailability in CD1 mouse at 8.7 mg/kg administered via gavage by LC-MS/MS method
# Format: ADME, organism-based
# Conditions used: in vivo
Measurement type: bioavailability (%)
Give just the numeric value; % need not be written.

Data request: Data request, read-out bioavailability, for `Cc1[nH]c(CO)c(-c2ccc(-c3ccc(OC(F)(F)F)cc3)nc2)c(=O)c1Cl`
Data returned: 133

====

# Assay text: Volume of distribution in CD1 mouse at 0.195 mg/kg, iv as bolus dose by LC-MS/MS method
# Type: ADME, organism-based
# Conditions used: in vivo
Measurement type: Vd (L/kg)
Note: unit L/kg is implicit; provide only the numeric part.

Data request: Bench note: what Vd did `Cc1[nH]c(C)c(-c2ccc(-c3cccc(C(F)(F)F)c3)nc2)c(=O)c1Cl` show?
Data returned: 0.68
